target: P. falciparum apicoplast DNA polymerase (Pf-apPOL) (Plasmodium falciparum); assay: Fluorescence-based high-throughput DNA polymerase assay (molecular beacon), primary screen and dose-response; assay type: biochemical; conditions: DRC-1; 90'; concentration 10
Sequence (Q8ILY1 entry or part of it): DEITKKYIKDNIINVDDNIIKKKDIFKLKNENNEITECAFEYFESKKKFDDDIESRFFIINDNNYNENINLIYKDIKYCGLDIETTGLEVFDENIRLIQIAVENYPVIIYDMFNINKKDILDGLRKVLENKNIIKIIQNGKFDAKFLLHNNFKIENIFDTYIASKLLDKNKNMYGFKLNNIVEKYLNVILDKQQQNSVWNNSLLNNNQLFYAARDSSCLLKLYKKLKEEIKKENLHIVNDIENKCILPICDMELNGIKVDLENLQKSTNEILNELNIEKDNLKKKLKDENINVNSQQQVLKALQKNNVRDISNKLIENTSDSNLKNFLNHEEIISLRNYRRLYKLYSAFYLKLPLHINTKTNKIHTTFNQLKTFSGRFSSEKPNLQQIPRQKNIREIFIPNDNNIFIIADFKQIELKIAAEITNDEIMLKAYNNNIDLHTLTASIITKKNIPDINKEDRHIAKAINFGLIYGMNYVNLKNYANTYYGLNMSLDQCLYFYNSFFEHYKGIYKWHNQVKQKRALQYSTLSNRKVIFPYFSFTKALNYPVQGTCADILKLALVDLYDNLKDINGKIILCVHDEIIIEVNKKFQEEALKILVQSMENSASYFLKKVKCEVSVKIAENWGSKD
MEASURED_ENDPOINT: % inhibition Apol 90' (%)
Reply with just the number (in %).

Example compounds with recorded % inhibition Apol 90':
In: Entry `O=C(O)c1cccc(N2N=C(C(F)(F)F)/C(=C/c3ccc(-c4ccccc4[N+](=O)[O-])o3)C2=O)c1` : reported % inhibition Apol 90' = ?
Out: 58.3032

In: How about `COc1cccc(C(=O)N2CCc3c(nc4cc(-c5ccccc5)[nH]n4c3=O)C2)c1OC` ?
Out: 49

In: Would you mind doing `COc1cc(Cl)c(C)cc1NC(=O)Cn1ccc2c(=O)[nH]ccc21` as well?
Out: 37.9384

In: Then what about the compound CC1=NNC(=O)C1Oc1ccc(Cl)cc1Cl (centres unmarked) ?
Out: 5.588

***
In: Name the recorded % inhibition Apol 90' for `O=C(Nc1ccc2c(c1)Cc1cc(NC(=O)c3ccco3)ccc1-2)c1ccco1` .
Out: 17.4686

In: `COc1cccc(Oc2c(C(F)(F)F)oc3cc(OC(=O)N(C)C)ccc3c2=O)c1` ?
Out: 34.8904

In: // repeat for `Cc1nc(/N=N/c2ccc(C(=O)[O-])cc2)c(COP(=O)([O-])[O-])c(C=O)c1O.[Na+].[Na+].[Na+]` and report
Out: 54.4878

In: Also need `CC(=O)c1cc2c(N)c(/C(N)=N/C#N)sc2nc1C` , thanks.
Out: 8.506

Where do the numbers come from? From paper PMC9090415.
